Source listed as patent US6376491B1.

# ASSAY TEXT: Acute toxicity (LD50) by intravenous administration in mice
# REPORTED CONDITIONS: mouse, in vivo
READOUT KIND: LD50

*Q* Query (molecule): CCOCc1cc2cc(OCc3oc4cccc(OCCCNCc5cccnc5)c4c3C)ccc2o1 ; field requested: LD50
*A* > 50 mg/kg
